- targetOrTestSystem: Human recombinant sEH (Homo sapiens (Human))
- protocolText: Soluble epoxide hydrolase inhibition (PHOME fluorescent substrate)
- Type: biochemical
- measurementContext: Table 1 head prints μM (Table 2 prints nM for same numbers); read-out: sEHi IC50
// reported IC50 per item
Use µM as the unit, but write only the number.

// below: answered compounds
CCCCCNC(=O)NCCCC/C=C\CCCCCCS(=O)(=O)[O-].[Na+]    0.057
CCCCCNC(=O)NCCCC/C=C\CCCCCSc1ccccc1O    0.006
CCCCCNC(=O)NCCCC/C=C\CCCCCCC(=O)NS(C)(=O)=O    0.071
CCCCCNC(=O)NCCCC/C=C\CCOc1cccc2sc(NC(C)=O)nc12    0.282
CCCCCNC(=O)NCCCC/C=C\CCCCCCc1nnn[nH]1    0.011

Return reported IC50. Input compound: CCCCCNC(=O)NCCCC/C=C\CCCCCSc1ncn[nH]1 0.032

---

// reported log10 EC50 per item
- System: bovine coronary artery
- protocolText: Vasorelaxant activity in bovine coronary artery rings precontracted with U-46619
- Assay type: cell-based
- measurementContext: Bos taurus; bovine coronary artery; read-out: Vascular Relax. EC50
A difference of one corresponds to tenfold EC50; all values are log10 with EC50 in nM.

// below: answered compounds
CCCCCNC(=O)NCCCC/C=C\CCCCCCC1=NOS(=O)N1 (stereo not drawn)    2.53
CCCCCNC(=O)NCCCC/C=C\CCCCCCc1noc(=S)[nH]1    3.52
CCCCCN(C)C(=O)N(C)CCCC/C=C\CCCCCCC(=O)NCC(=O)O    3.44

Return reported log10 EC50. Input compound: CCCCCNC(=O)NCCCC/C=C\CCCCCCCc1nnn[nH]1 3.04

Return reported log10 EC50. Input compound: CCCCCNC(=O)NCCCC/C=C\CCCCCCc1nsc(=O)[nH]1 3.38

Return reported log10 EC50. Input compound: CCCCCNC(=O)NCCCC/C=C\CCCCCCc1noc(=O)[nH]1 3.04

Return reported log10 EC50. Input compound: CCCCCNC(=O)NCCCC/C=C\CCCCCS(=O)(=O)c1ccccc1O 3.70

Return reported log10 EC50. Input compound: CCCCCNC(=O)NCCCC/C=C\CCCCCSc1nnn[nH]1 3.57

---

// reported IC50 per item
- targetOrTestSystem: Human recombinant sEH (Homo sapiens (Human), UniProt P34913)
- Sequence (P34913 whole entry): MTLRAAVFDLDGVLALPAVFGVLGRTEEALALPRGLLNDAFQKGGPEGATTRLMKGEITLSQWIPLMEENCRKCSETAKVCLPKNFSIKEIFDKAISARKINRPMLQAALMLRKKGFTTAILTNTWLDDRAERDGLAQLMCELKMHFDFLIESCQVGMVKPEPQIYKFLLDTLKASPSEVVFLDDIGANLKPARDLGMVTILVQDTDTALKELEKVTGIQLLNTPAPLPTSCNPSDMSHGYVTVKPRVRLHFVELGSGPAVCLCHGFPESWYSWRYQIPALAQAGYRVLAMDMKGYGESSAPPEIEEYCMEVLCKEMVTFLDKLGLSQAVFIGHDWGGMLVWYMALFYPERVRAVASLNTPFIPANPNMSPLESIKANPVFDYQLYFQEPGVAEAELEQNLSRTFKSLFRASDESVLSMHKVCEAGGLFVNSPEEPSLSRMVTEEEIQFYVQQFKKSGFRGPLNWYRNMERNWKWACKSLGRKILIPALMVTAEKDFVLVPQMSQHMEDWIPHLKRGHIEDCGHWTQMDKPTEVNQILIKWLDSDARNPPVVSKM
- protocolText: Soluble epoxide hydrolase inhibition (PHOME fluorescent substrate)
- Type: biochemical
- measurementContext: Table 1 head prints μM (Table 2 prints nM for same numbers); read-out: sEHi IC50
Use µM as the unit, but write only the number.

// below: answered compounds
CCCCCNC(=O)NCCCC/C=C\CCCCCCc1noc(=S)[nH]1    0.031
CCCCCNC(=O)NCCCC/C=C\CCCCCC1SC(=O)NC1=O (centres unmarked)    0.057
CCCCCNC(=O)NCCCC/C=C\CCCCCSc1nnn[nH]1    0.022

We next turn to a different compound, shown below.
Return reported IC50. Input compound: CCCCCNC(=O)NCCCC/C=C\CCCCCCC(=O)NS(=O)(=O)c1ccccc1 0.041

---

- Tested on: bovine coronary artery
- protocolText: Vasorelaxant activity in bovine coronary artery rings precontracted with U-46619
- Assay type: cell-based
- measurementContext: 10 μM; Table 2
quantity: Vascular relaxation % relaxation (10 μM) (%)
Use % as the unit, but write only the number.

// below: answered molecules
CCCCCNC(=O)NCCCC/C=C\CCCCCCc1nnn[nH]1    119
CCCCCNC(=O)NCCCC/C=C\CCCCCCC(=O)N[C@@H](CC(=O)O)C(=O)O (stereo in doubt)    91
CCCCCCC(=O)N(CCCCCOc1cccc2sc(NC(C)=O)nc12)C(C)C    96

We next turn to a different molecule, shown below.
Return reported Vascular relaxation % relaxation (10 μM). Input molecule: CCCCCCC(=O)N(CCCC/C=C\CCCCCCC1=NOS(=O)N1)C(C)C (stereo not shown) 109
